# IC50 per record follows
Biological target: proTNF-α convertase enzyme (TACE) (Homo sapiens)
Construct: a partially purified, isolated enzyme assay, the enzyme being obtained from the membranes of THP-1; endogenous in cells
Sequence (P78536 215-824): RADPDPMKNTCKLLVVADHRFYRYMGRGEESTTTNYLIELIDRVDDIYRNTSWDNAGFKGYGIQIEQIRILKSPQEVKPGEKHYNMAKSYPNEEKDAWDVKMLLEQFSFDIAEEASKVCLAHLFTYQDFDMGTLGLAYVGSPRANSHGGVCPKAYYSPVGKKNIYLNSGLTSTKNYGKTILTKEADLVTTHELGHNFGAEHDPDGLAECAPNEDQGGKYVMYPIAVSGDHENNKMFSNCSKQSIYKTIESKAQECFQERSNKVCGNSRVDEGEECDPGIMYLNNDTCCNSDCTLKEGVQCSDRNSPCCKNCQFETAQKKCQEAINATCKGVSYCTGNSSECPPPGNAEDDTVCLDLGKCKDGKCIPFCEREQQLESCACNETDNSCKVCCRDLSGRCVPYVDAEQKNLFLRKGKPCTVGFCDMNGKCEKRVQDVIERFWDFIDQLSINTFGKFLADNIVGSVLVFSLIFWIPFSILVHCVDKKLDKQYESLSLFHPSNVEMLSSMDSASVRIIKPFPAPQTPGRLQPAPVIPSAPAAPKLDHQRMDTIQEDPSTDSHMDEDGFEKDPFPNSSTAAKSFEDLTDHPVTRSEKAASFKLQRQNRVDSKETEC
Assay: Isolated enzyme assay, proTNF-α convertase (TACE), fluorescent peptide substrate
Conditions: partially purified enzyme from membranes of THP-1; 26° C. for 4 hours; read-out: concentration giving 50% inhibition of TACE
Write the answer as a number in nM, unit excluded.

IC50 for CCC1(CS(=O)(=O)Nc2ccc(OCc3cc(C)nc4ccccc34)cc2)NC(=O)NC1=O (centres unmarked) ?
37

IC50 for Cc1cc(COc2ccc(NS(=O)(=O)CC3(C)NC(=O)NC3=O)cc2)c2ccccc2n1 (centres unmarked) ?
71

Hello, the source for this data is patent US20050256176A1, in case you need it.
